measured target: T1, EGFRvIII target antigen (SPR ligand) (UniProt P00533 25-645, limits assumed)
T1 construct: also called EGFRvIII antigen
procedure summary: SPR; antibody as analyte
measured endpoint: pKd
Numbers only, as −log10 of the molar value.

Below are worked cases with known answers.
INSERT INTO results (binder, measured_endpoint, val) VALUES
  ('humanized antibody 28-H5 (84C3G8H7-VH4 + VL1) (scFv, the format in the SPR assay is not clearly stated) scFv: QVQLVQSGAEVKKPGASVKVSCKASGFNIKDYYMHWVKQAPGQRLEWIGWIDPENGNTIYDPKFQGRATITADTSANTAYMELSSLRSEDTAVYYCARGWFAYWGQGTLVTVSSGGGGSGGGGSGGGGSGGGGSDIVMTQSPDSLAVSLGERATINCKSSQSLLNSSNQKNHLAWYQQKPGQPPKLLIYFASTRASGVPDRFSGSGSGTDFTLTISSLQAEDVAVYYCQQHYSTPLTFGGGTKLELK', 'pKd', 7.10),
  ('humanized antibody 28-H7 (84C3G8H7-VH3 + VL1(PTM)) (scFv, the format in the SPR assay is not clearly stated) scFv: QVQLVQSGAEVKKPGASVKVSCKASGFNIKDYYMHWVRQAPGQRLEWIGWIDPENGNTIYDPKFQGRATITADTSASTAYMELSSLRSEDTAVYYCARGWFAYWGQGTLVTVSSGGGGSGGGGSGGGGSGGGGSDIVMTQSPDSLAVSLGERATINCKSSQSLLNSSNQKNHLAWYQQKPGQPPKLLIYFASTRGSGVPDRFSGSGSGTDFTLTISSLQAEDVAVYYCQQHYSTPLTFGGGTKLELK', 'pKd', 7.11);

Turning now to a further record.
Input: # get_value(readout='pKd', item= humanized antibody 28-H4 (84C3G8H7-VH3 + VL2) (scFv, the format in the SPR assay is not clearly stated) scFv: QVQLVQSGAEVKKPGASVKVSCKASGFNIKDYYMHWVRQAPGQRLEWIGWIDPENGNTIYDPKFQGRATITADTSASTAYMELSSLRSEDTAVYYCARGWFAYWGQGTLVTVSSGGGGSGGGGSGGGGSGGGGSDIVMTQSPDSLAVSLGERATINCKSSQSLLNSSNQKNHLAWYQQKPGQPPKLLVYFASTRASGVPDRFSGSGSGTDFTLTISSLQAEDVAVYFCQQHYSTPLTFGGGTKLELK )
Output: 6.81
